# reported glycan array binding signal (z-score); entries follow
- target.or.system: Man(a1-2)Man(a1-6)[Man(a1-3)]Man(a1-6)[Man(a1-2)Man(a1-2)Man(a1-3)]Man(b1-4)GlcNAc(b1-4)GlcNAc
- protocol.text: glycan array binding signal (z-score within array); higher = stronger binding
- assay.setup: glycan notation: IUPAC condensed, linker removed
About 410 targets per protein were measured; listed, in parts, are those with the strongest signals and a random draw of the rest.
Form: value (number only, do not type unit).

Field: example entries. Status: answers known.
binder	endpoint.name	measured.result
Mnn9-2N3 (Aspergillus fumigatus) (protein) MAVARRMRRTNPITLLLAAILAIGFFIFVLSPSTTSASPVKAGSASSSSTSQQRREDNAAENPLSPPTKPFFKSQPVRHDGQQAPPPVVQYNLNQLSSTSTSAANGERILILTPMARFVPEYWDNVVKLTYPHELISIGFIIPKNKEGNAALAALEAAIAKTQSGPIDKRFASISILRQDFEPPLQSQDEKERHKISNQKARRESMSRARNSLLFTTLGPATAWVLWLDADIVETPPTLIQDLTAHDHPVLVPNCYQRYYNSEKKKMDVRPYDYNSWIDSSTAQSMAAEMGPDEILLEGYAEMPTYRTLMAHLADTANPNPKKVIELDGVGGTALMVKAEVHRDGAMFPAFPFYHLVETEGFAKMAKRLGYSVYGLPDYFVSRNFFFFFFFFFFG	glycan array binding signal (z-score)	-0.789
Epa19 (Candida glabrata) (protein) MGSSHHHHHHSSGLVPRGSHMASSKDPTRFPIGCSPQVLKTQPGLAVKLYSYGHPVPGCSYITYQYPDFPRSGYKKERKLADITGVNGKIDIDLKPNDPCRVLTGHLPSNYNYPDTLTYTNFTMILYGYFQPKVTGYHTFNLEADDLLFMNLGAGNAFDCCKAESTLDNFGNYQSYSLWGSDYAKANITVFLVSGVYYPIRLFYVNRDNNAVIDFSFTTEFDKEKVHDFTSYFFSASDGEQCPGSV	glycan array binding signal (z-score)	-0.373

// switching to the query binder
Q: What value of measured glycan array binding signal (z-score) is listed for Gz-CVNH (Gibberella zeae) (protein) MGSSHHHHHHSSGLVPRGSHMGNFHESSNNIWLEDGHILHAECGNGEGDYVESTLDLDYYIGNDDGSFSWGGENFSGSASNITLDIEGDDNIPVLRAELNPMDGDPVEANVNLSERIGNDCGTLIFLA ?
A: 8.33
